Test system: Klebsiella pneumoniae
Test: Antibacterial activity against clinically isolated Klebsiella pneumoniae RBRJ024 assessed as inhibition of bacterial growth at 50 uM measured after 48 hrs by agar well diffusion method
Type: functional
Conditions: read-out: IZ
result type: zone of inhibition at 50 µM (mm)
// return numeric value only (unit: mm, not printed)

Reference set (4 entries):
                                   molecule                  result_type  result
0  COc1ccc2c(c1)C(=O)C(=O)N2CCn1cc(COc2cc(C)ccc2C(C)C)nn1  zone of inhibition at 50 µM    14.9
1  Cc1ccc(C(C)C)c(OCc2cn(CCCN3C(=O)C(=O)c4cc(C)ccc43)nn2)c1  zone of inhibition at 50 µM    17.2
2  Cc1ccc(C(C)C)c(OCc2cn(CCCN3C(=O)C(=O)c4cc(Cl)ccc43)nn2)c1  zone of inhibition at 50 µM    14.8
3  Cc1ccc(C(C)C)c(OCc2cn(CCCCN3C(=O)C(=O)c4cc(F)ccc43)nn2)c1  zone of inhibition at 50 µM    11.3

# evaluate next
# zone of inhibition at 50 µM of COc1ccc2c(c1)C(=O)C(=O)N2CCCn1cc(COc2cc(C)ccc2C(C)C)nn1 = 17.6

----------
Test system: Staphylococcus aureus
Assay: Antibacterial activity against Staphylococcus aureus MTCC 740 assessed as inhibition of bacterial growth measured after 48 hrs by broth microdilution method
Assay type: functional
result type: MIC (µM)
// return numeric value only (unit: µM, not printed)

Reference set (3 entries):
                                   molecule  result
0  Cc1ccc(C(C)C)c(OCc2cn(CCCN3C(=O)C(=O)c4cc(Cl)ccc43)nn2)c1    15.6
1  Cc1ccc(C(C)C)c(OCc2cn(CCN3C(=O)C(=O)c4ccccc43)nn2)c1    62.5
2  Cc1ccc(C(C)C)c(OCc2cn(CCCN3C(=O)C(=O)c4cc(I)ccc43)nn2)c1    31.2

# MIC of Cc1ccc(C(C)C)c(OCc2cn(CCCN3C(=O)C(=O)c4ccccc43)nn2)c1 = 1.9

# MIC of Cc1ccc(C(C)C)c(OCc2cn(CCCN3C(=O)C(=O)c4cc(Br)ccc43)nn2)c1 = 31.2

# MIC of Cc1ccc(C(C)C)c(OCc2cn(CCN3C(=O)C(=O)c4cc(F)ccc43)nn2)c1 = 62.5

----------
Assay: Selectivity index, ratio of IC50 for cytotoxicity against mouse L929 cells to MIC for antibacterial activity against clinically isolated Methicillin-resistant Staphylococcus aureus
Type: toxicity, cell-based
Conditions: read-out: Selectivity Index
result type: selectivity ratio
Kindly provide the number alone.

Reference set (4 entries):
>>> df
                                   molecule  result
0  Cc1ccc(C(C)C)c(OCc2cn(CCN3C(=O)C(=O)c4ccccc43)nn2)c1       4
1  Cc1ccc(C(C)C)c(OCc2cn(CCCN3C(=O)C(=O)c4ccccc43)nn2)c1      65
2  Cc1ccc(C(C)C)c(OCc2cn(CCCN3C(=O)C(=O)c4cc(F)ccc43)nn2)c1       2
3  Cc1ccc(C(C)C)c(OCc2cn(CCCN3C(=O)C(=O)c4cc(C)ccc43)nn2)c1      32

# selectivity ratio of Cc1ccc(C(C)C)c(OCc2cn(CCCN3C(=O)C(=O)c4cc(Cl)ccc43)nn2)c1 = 4
